Hey, just so you know, these numbers are from patent US20250090437A1.

# ASSAY_DETAILS: Water retention property test 3 (long term)
# Format: physicochemical
# EXPERIMENTAL_PARAMETERS: 80 wt % aqueous solution; unsealed, 40° C. and 25% RH; 24 h
This section presents compounds with their documented Moisture rate after 24 h values.
Write the value in % as a bare number.

- COMPOUND: "CS(=O)(=O)O.NC(CO)CO"
  Moisture rate after 24 h (%): 19.4
- COMPOUND: "OCC(O)CO"
  Moisture rate after 24 h (%): 18.0
- COMPOUND: "CCCC[N+](CCCC)(CCCC)CCCC.[Br-]"
  Moisture rate after 24 h (%): 15.9

Report Moisture rate after 24 h, nothing else, for this compound: CCCCn1cc[n+](C)c1.F[B-](F)(F)F 14.5

Report Moisture rate after 24 h, nothing else, for this compound: CC(O)C(=O)O.NC(CO)CO (centres unmarked) 19.5

====

# ASSAY_DETAILS: Water retention property test 2 (hydrates)
# Type: physicochemical
# EXPERIMENTAL_PARAMETERS: hydrate (anhydrides: aqueous solution at mono- to trihydrate concentration); unsealed, 24 hours at 40° C. and 25% RH
# Procedure: (2) Water retention property test 2 The water retention property of the hydrate of each compound was evaluated. […] A moisture rate after 24 hours was again measured (post-test moisture rate: B), followed by calculating a rate of reduction in moisture in a similar manner as above so as to evaluate the water retention property. […]
Mark met for reported Rate of reduction in moisture of 4% or greater; mark not met for anything smaller.

Study these solved cases before continuing.
- COMPOUND: "CC(=O)O.NC(CO)CO"
  CATEGORY: "not met"
- COMPOUND: "OCC(O)CO [Comparative example C11]"
  CATEGORY: "met"

Tell me whether Rate of reduction in moisture is at least 4% here: Br.NC(CO)CO met

Tell me whether Rate of reduction in moisture is at least 4% here: OCC(O)CO [Comparative example C12] met

Tell me whether Rate of reduction in moisture is at least 4% here: C[N+](C)(C)CCO.O=P([O-])(O)O not met

Tell me whether Rate of reduction in moisture is at least 4% here: CC[N+](C)(C)CCO.CS(=O)(=O)[O-] not met

Tell me whether Rate of reduction in moisture is at least 4% here: C[N+](C)(CCO)CC(O)CO.[Cl-] (centres unmarked) met

Tell me whether Rate of reduction in moisture is at least 4% here: CCCCn1cc[n+](C)c1.F[B-](F)(F)F [Comparative example C7] met

Tell me whether Rate of reduction in moisture is at least 4% here: C[N+](C)(C)CCO.[Cl-] met

====

# ASSAY_DETAILS: Water retention property test 3 (long term)
# Format: physicochemical
# EXPERIMENTAL_PARAMETERS: 80 wt % aqueous solution; unsealed, 40° C. and 25% RH; 96 h
This section presents compounds with their documented Moisture rate after 96 h values.

Example entries begin here.
- COMPOUND: "CCCC[N+](CCCC)(CCCC)CCCC.[Br-]"
  Moisture rate after 96 h: "0.7%"
- COMPOUND: "CS(=O)(=O)O.NC(CO)CO"
  Moisture rate after 96 h: "17.6%"
- COMPOUND: "OCC(O)CO"
  Moisture rate after 96 h: "11.1%"

Report Moisture rate after 96 h, nothing else, for this compound: CCCCn1cc[n+](C)c1.F[B-](F)(F)F 0.0%

Report Moisture rate after 96 h, nothing else, for this compound: CC(O)C(=O)O.NC(CO)CO (centres unmarked) 17.8%
